Reference for the values: ChEMBL document CHEMBL5036382

study system: DNA-directed RNA polymerase I subunit RPA1 (Homo sapiens, UniProt O95602)
Sequence (O95602 whole entry): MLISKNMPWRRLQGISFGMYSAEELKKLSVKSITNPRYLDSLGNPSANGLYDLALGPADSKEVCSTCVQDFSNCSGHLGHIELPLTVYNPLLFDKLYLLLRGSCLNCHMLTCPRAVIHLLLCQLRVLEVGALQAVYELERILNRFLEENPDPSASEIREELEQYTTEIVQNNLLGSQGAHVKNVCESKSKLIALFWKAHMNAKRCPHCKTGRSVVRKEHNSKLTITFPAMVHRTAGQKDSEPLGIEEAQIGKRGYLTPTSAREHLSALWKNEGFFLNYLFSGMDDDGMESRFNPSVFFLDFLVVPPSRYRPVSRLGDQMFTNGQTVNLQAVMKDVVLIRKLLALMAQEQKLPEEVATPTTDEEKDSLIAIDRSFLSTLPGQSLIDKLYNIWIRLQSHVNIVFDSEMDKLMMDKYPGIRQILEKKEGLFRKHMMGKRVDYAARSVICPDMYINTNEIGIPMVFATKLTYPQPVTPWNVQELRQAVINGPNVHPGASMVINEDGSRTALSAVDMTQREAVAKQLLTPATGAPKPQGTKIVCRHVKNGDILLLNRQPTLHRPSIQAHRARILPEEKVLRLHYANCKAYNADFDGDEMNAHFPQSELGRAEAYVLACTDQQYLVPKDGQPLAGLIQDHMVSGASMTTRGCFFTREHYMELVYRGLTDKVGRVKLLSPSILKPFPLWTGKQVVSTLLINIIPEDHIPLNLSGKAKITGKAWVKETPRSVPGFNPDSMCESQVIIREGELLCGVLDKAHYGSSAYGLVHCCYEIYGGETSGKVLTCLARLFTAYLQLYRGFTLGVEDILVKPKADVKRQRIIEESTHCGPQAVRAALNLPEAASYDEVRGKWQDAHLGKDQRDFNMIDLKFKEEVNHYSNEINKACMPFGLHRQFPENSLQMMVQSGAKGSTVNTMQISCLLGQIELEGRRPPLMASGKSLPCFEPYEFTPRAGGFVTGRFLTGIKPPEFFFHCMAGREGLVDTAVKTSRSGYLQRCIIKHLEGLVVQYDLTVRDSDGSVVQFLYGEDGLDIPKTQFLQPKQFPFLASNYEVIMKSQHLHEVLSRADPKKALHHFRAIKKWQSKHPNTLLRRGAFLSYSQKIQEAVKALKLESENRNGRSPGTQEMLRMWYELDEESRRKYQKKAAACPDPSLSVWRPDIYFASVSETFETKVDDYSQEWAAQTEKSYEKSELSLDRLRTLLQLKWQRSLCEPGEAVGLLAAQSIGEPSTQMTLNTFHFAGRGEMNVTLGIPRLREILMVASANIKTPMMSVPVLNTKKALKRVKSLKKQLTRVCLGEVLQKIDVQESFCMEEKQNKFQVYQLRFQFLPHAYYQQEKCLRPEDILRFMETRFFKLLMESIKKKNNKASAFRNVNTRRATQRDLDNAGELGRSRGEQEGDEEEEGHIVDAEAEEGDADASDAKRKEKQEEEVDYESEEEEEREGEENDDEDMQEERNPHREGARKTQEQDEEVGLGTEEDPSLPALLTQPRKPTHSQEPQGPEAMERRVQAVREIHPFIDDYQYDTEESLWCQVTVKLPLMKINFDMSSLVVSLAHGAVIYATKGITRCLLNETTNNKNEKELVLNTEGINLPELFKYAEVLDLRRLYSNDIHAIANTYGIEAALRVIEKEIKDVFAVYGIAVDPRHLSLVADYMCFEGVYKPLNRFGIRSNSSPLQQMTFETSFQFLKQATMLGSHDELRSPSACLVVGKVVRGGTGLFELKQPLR
assay details: Inhibition of RNA polymerase 1 in human A-375 assessed as RPA194 degradation measured after 3 hrs by Hoechst 33342 staining based assay
pIC50: −log10 of the molar value.
Listing of entries alongside the reported pIC50.
reported metric: pIC50

1. O=C(NCCN1CCCC1)c1c(O)ccn2c(=O)c3cc4ccccc4cc3nc12 : 5.26
2. CN1CCOCC1CNC(=O)c1cccn2c(=O)c3cc4ccccc4cc3nc12 (stereo not given) : 6.00
3. O=C(NCCN1CCCC1)c1cccn2c(=O)c3cc4c(cc3nc12)OCCO4 : 5.98
4. O=C(NCCN1CCCC1)c1cccn2c(=O)c3c(ccc4cnncc43)nc12 : 5.38
